- TEST SUMMARY: Cytotoxicity was assessed by measurement of cytosolic lactic dehydrogenase (LDH) leakage after 24 hr incubation with freshly isolated human peripheral lymphocytes
- CONDITION DETAILS: read-out: ID50
EXPERIMENTAL ENDPOINT: CC50 at 24 h

>>> print(df.to_string())
                                   compound  experimental_endpoint  reported_result
0  CCCCCCCCCCCCCCCCCCOCC(COP(=O)(O)OCC[N+]1(C)CCCC1)OC.[OH-] (stereo not drawn)           CC50 at 24 h       22.7 µg/mL
1  CCCCCCCCCCCCCCCCCCOCC(COP(=O)(O)OC[C@H](C)[N+](C)(C)C)OC.[OH-] (stereo partly drawn)           CC50 at 24 h      > 100 µg/mL
2  CCCCCCCCCCCCCCCCCCOCC(COP(=O)(O)OC[C@@H](C)[N+](C)(C)C)OC.[OH-] (stereo partly drawn)           CC50 at 24 h      > 100 µg/mL

Parameter requested: CC50 at 24 h. Apply to each item below.
1. CCCCCCCCCCCCCCCCCCOCC(COP(=O)(O)OCCN(C)C)OC.O (stereo not drawn)
2. CCCCCCCCCCCCCCCCCCOCC(COP(=O)(O)OCC[N+](C)(C)C)OC.[OH-] (stereo in doubt; 2)
3. CCCCCCCCCCCCCCCCCCOCC(COP(=O)(O)O[C@H](C)C[N+](C)(C)C)OC.[OH-] (stereo partly drawn)

Result:
1. 24.6 µg/mL
2. > 100 µg/mL
3. > 100 µg/mL

Parameter requested: CC50 at 24 h. Apply to each item below.
1. CCCCCCCCCCCCCCCCCCOCC(COP(=O)(O)O[C@@H](C)C[N+](C)(C)C)OC.[OH-] (stereo partly drawn)
2. CCCCCCCCCCCCCCCCCCOCC(COP(=O)(O)OCC[N+]1(C)CCOCC1)OC.[OH-] (stereo not drawn)

Result:
["> 100 µg/mL", "52.1 µg/mL"]

---

- Test system: HuT78
- TEST SUMMARY: Cytotoxicity was assessed by measurement of cytosolic lactic dehydrogenase (LDH) leakage after 24 hr incubation with human cutaneous T-lymphoma (Hut 78) cell line
- Assay type: functional
- CONDITION DETAILS: Homo sapiens, HuT78, 24 h; read-out: ID50 (the source's name)
Checkbox rule: IC50 lower than 6 µg/mL = true; IC50 not lower than 6 µg/mL = false.

Task: Record CCCCCCCCCCCCCCCCCCOCC(COP(=O)(O)O[C@@H](C)C[N+](C)(C)C)OC.[OH-] (stereo partly drawn) : is its IC50 strictly below 6 µg/mL?
Result: false

Task: Record CCCCCCCCCCCCCCCCCCOCC(COP(=O)(O)OC[C@@H](C)[N+](C)(C)C)OC.[OH-] (stereo partly drawn) : is its IC50 strictly below 6 µg/mL?
Result: false

Task: Record CCCCCCCCCCCCCCCCCCOCC(COP(=O)(O)OCC[N+]1(C)CCCC1)OC.[OH-] (stereo not drawn) : is its IC50 strictly below 6 µg/mL?
Result: false

Task: Record CCCCCCCCCCCCCCCCCCOCC(COP(=O)(O)OCC[N+]1(C)CCOCC1)OC.[OH-] (stereo not drawn) : is its IC50 strictly below 6 µg/mL?
Result: true

---

- Tested on: HuT78
- TEST SUMMARY: Cytotoxicity was assessed by measurement of cytosolic lactic dehydrogenase (LDH) leakage after 24 hr incubation with human cutaneous T-lymphoma (Hut 78) cell line
- Format: functional
- CONDITION DETAILS: Homo sapiens, HuT78, 24 h; read-out: ID50 (the source's name)
Field: IC50. Provide a value for each of the molecules that follow.
Numbers only, in µg/mL.

Past entries and their recorded results:
>>> print(df.to_string())
                                   molecule  target_system  experimental_endpoint  reported_result
0  CCCCCCCCCCCCCCCCCCOCC(COP(=O)(O)OCC[N+](C)(C)C)OC.[OH-] (stereo in doubt; 2)          HuT78                   IC50              4.1
1  CCCCCCCCCCCCCCCCCCOCC(COP(=O)(O)O[C@H](C)C[N+](C)(C)C)OC.[OH-] (some centres undefined)          HuT78                   IC50              9.1
2  CCCCCCCCCCCCCCCCCCOCC(COP(=O)(O)OCCN(C)C)OC.O (centres undefined)          HuT78                   IC50              3.5

Task: Read the entry CCCCCCCCCCCCCCCCCCOCC(COP(=O)(O)OC[C@H](C)[N+](C)(C)C)OC.[OH-] (some centres undefined) and write its reported IC50.
Result: 5.9
